Where do the numbers come from? From the Human Domainome abundance scans (Beltran et al. 2025).

The entries below are paired with their reported abundance fitness.
B1: Membrane-associated guanylate kinase, WW and PDZ domain-containing protein 2, residues 601 to 682; numbered along this chain, Q86UL8 (parent)
chain: AELMTLTIVKGAQGFGFTIADSPTGQRVKQILDIQGCPGLCEGDLIVEINQQNVQNLSHTEVVDILKDCPIGSETSLIIHRG

- Variants of: B1
- assay comment: abundance fitness (aPCA) (normalised: wild type 0, dead -1); higher = more abundant; growth selection in yeast, the domain comes from the species named
- stated conditions: Homo sapiens
recorded endpoint: abundance fitness

    variant_name  recorded_value
 0          V28A          -0.305
 1          D33Q           0.024
 2          E42M           0.036
 3          D64V           -0.06
 4          G43W          -0.206
 5          E42V          -0.062
 6          N50S           -0.03
 7          L77A          -0.124
 8          G82V          -0.188
 9          S58F           -0.29
10          G39D          -0.197
11          I79S          -0.314
12          I31K           0.197
13          V63M           0.041
14          I34N           0.034
15          D68T          -0.153
16          G72Y          -0.419
17          H59M           0.065
18          Q51T           0.005
19          G39N          -0.043
20          I71P          -0.052
21          L66Y          -0.736
22          I79K          -0.534
23          Q30M           0.098
24          L57Q          -0.081
25          S76V          -0.031
26          L32D           0.022
27          Q52V          -0.039
28          G72E          -0.018
29          T24C           -0.03
30          E61L          -0.046
31          T18S          -0.013
32          L66V          -0.235
33          P38E           -0.11
34          I31P          -0.181
35          R81T          -0.174
36          L40T          -0.498
37          N50R          -0.068
38          L66Q          -0.557
39          V54Y              -1
40          L40S          -0.616
41          I34E          -0.045
42          L77V           -0.03
43          V28E           -1.03
44          P23M          -0.072
45          G39E          -0.255
46          H80T           0.028
47          Q52C          -0.052
48          P23K           0.023
49          L77F           -0.05
50          V63Q          -0.087
51          D64T          -0.126
52          I78R           0.033
53          T75N          -0.115
54          G43C          -0.187
55          N56R          -0.036
56          L77G           -1.02
57          N53L          -0.069
58          Q30T          -0.117
59          D64Q          -0.057
60          D64W          -0.047
61          C41E            0.01
62          V47N          -0.291
63          V63D           0.145
64          I65C          -0.053
65          V54C          -0.086
66          P23W           -0.03
67          G82R          -0.016
68          I79V          -0.102
69          L77E           -1.12
70          I19C          -0.335
71          L32R          -0.069
72          L77M           0.008
73          G25Q          -0.255
74          D44C          -0.989
75          C41Q          -0.001
76          D21H          -0.068
77          R27T           0.021
